assay: growth inhibition of RCMB18 medulloblastoma cells, cell-based, cisplatin and BGB IC40 combos (AID 1671462); conditions: measured here: combination with cisplatin, at 0.5 µM, stronger effect = higher value;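 also: cells exposed to compound for four days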
# inhibition per entry
Answer format: numeric, % implied, no suffix.

# example entries with known answers
>>> measured_value("O=c1[nH]cc(F)c(=O)[nH]1")
13.9
>>> measured_value("CC(=O)OCC(CCn1cnc2cnc(N)nc21)COC(C)=O")
3.82

Task: Please list inhibition recorded for the compound O=C(O)CCCc1ccccc1
Output: -7.69

Task: Please list inhibition recorded for the compound CCn1cc(C(=O)O)c(=O)c2cc(F)c(N3CCNCC3)cc21
Output: 20.7

###

experiment: growth inhibition of GSK3B-pretreated HCT116 cells – cell-based, CellTiter-Glo, 0.2 to 20 µM (AID 1117336); settings: HCT116 viability after GSK3B inhibitor, at 20 µM, stronger effect = higher value
For each record, check the reported viability decrease: if it is below 90% write yes, else write no.

>>> category_label("COc1cc([C@@H]2c3cc4c(cc3[C@H](O)[C@H]3COC(=O)[C@H]23)OCO4)cc(OC)c1OC")
"no"
>>> category_label("OC[C@H]1O[C@@H](n2cnc3c(=S)nc[nH]c32)[C@H](O)[C@@H]1O")
"no"
>>> category_label("CC(C)C(=O)Nc1cccc(C2CN3CCSC3=N2)c1 (stereo unspecified)")
"yes"
>>> category_label("OCCN1CCN(CCCN2c3ccccc3Sc3ccc(Cl)cc32)CC1")
"no"
>>> category_label("CC(C)=CCCC(C)=CCCC(C)=CCCC(C)=CCC1=C(C)C(=O)c2ccccc2C1=O")
"yes"
>>> category_label("Nc1ccc(C(=O)N2CC3CC(CN(Cc4ccccc4)C3)C2)cc1")
"yes"
>>> category_label("O=C1c2ccccc2CCc2ccccc21")
"yes"
>>> category_label("O=C(c1ccco1)N1CCNCC1")
"yes"

Query molecule follows.
Task: Given the entry O=C(CCN1CCN(CCO)CC1)N1c2ccccc2Sc2ccc(C(F)(F)F)cc21 , would its reported viability decrease be below 90%?
Output: yes

###

# fluorescence ratio per entry
test: Cy5 fluorescence interference with SSB-bound oligo, artefact control for HCV NS3 helicase inhibitor project, biochemical, NIH Clinical Collection, E. coli SSB (AID 743268)
Output: the number by itself.

# example entries with known answers
>>> measured_value("CN(C)CCCN1c2ccccc2CCc2ccc(Cl)cc21")
1
>>> measured_value("Cc1ccc(S(=O)(=O)NC(=O)NN2CCCCCC2)cc1")
1.04
>>> measured_value("CCN(CC)CC(=O)Nc1c(C)cccc1C")
1.01
>>> measured_value("CCCNC(=O)NS(=O)(=O)c1ccc(Cl)cc1")
0.93
>>> measured_value("Nc1nc2ncc(CNc3ccc(C(=O)N[C@@H](CCC(=O)O)C(=O)O)cc3)nc2c(=O)[nH]1")
0.95
>>> measured_value("CCOC(=O)N1CCC(=C2c3ccc(Cl)cc3CCc3cccnc32)CC1")
0.91
>>> measured_value("CN(C)CCc1c[nH]c2ccc(C[C@H]3COC(=O)N3)cc12")
1.02
>>> measured_value("CCCc1cc(=O)[nH]c(=S)[nH]1")
1.04
>>> measured_value("CC(C)Oc1ccc2c(=O)c(-c3ccccc3)coc2c1")
1.05
>>> measured_value("CN1CCN(CCCN2c3ccccc3Sc3ccc(C(F)(F)F)cc32)CC1")
0.87

Task: Please list fluorescence ratio recorded for the compound COc1ccccc1OCCNCC(O)COc1cccc2[nH]c3ccccc3c12 (configuration not stated)
Output: 0.92

Task: Please list fluorescence ratio recorded for the compound CN=C(NC#N)NCCSCc1nc[nH]c1C
Output: 0.98

Values from PubChem BioAssay
